Origin of values: patent US20260325654A1

tested on: NCIH727; test: CellTiter-Glo Reagent cancer cell line proliferation assay, NCIH727; format: cell-based, human; details: Homo sapiens, NCI-H727, 24 h, NCIH727, KRAS(G12V) heterozygous
Reported IC50 values are given for each entry in this list.

Below are worked cases with known answers.
1) C#Cc1c(F)ccc2cc(O)cc(-c3nc(OC)c4c(N5CC6CCC(C5)N6C(=O)CCC#N)nc(OCC5(CN6CCN(CC7CCN(c8ccc9c(N%10CCC(=O)NC%10=O)nn(C)c9c8)CC7)CC6)CC5)nc4c3F)c12 [Compound 159] : < 100 nM
2) C#Cc1c(F)ccc2cc(O)cc(-c3nc(OC)c4c(N5CC6CCC(C5)N6C(=O)C[C@@H](C)C#N)nc(OCC5(CN6CCN(CN7CCC(N8Cc9cc%10c(cc9C8)C(=O)N(C8CCC(=O)NC8=O)C%10)CC7)CC6)CC5)nc4c3F)c12 (stereo partly shown) [Compound 162] : < 100 nM
3) C#Cc1c(F)ccc2cc(O)cc(-c3nc4c5c(nc(OCC6(CN7CCN(CC8CCN(c9ccc%10c(c9)CN(C9CCC(=O)NC9=O)C%10=O)CC8)CC7)CC6)nc5c3F)N(CC(F)F)[C@@H](C)CO4)c12 (stereo partly shown) [Compound 158] : < 100 nM

Bench note, NCIH727: C#Cc1c(F)ccc2cc(O)cc(-c3ncc4c(N5CC6CCC(C5)N6C(=O)[C@@H](C)C#N)nc(OCC5(CN6CCN(CC7CCN(c8ccc9c(c8)CN(C8CCC(=O)NC8=O)C9=O)CC7)CC6)CC5)nc4c3F)c12 (stereo partly shown) [Compound 109] , IC50 reads 100 to 1000 nM
